value type: melting point (°C)

1. COc1ccc2c(c1)C(=O)/C(=C/c1cccnc1Oc1ccccc1)CC2: 136
2. O=C1/C(=C/c2cccnc2Oc2ccc(Cl)cc2)CCc2ccccc21: 130
3. COc1ccc2c(c1)C(=O)/C(=C/c1cccnc1Oc1ccc(Cl)cc1)CC2: 160
4. COc1ccc2c(c1)CC/C(=C\c1cccnc1Oc1ccccc1)C2=O: 134

====

Entries and their pIC50
Tested on: CEM-DNR
experiment notes: MTS antiproliferative assay CEM-DNR
Type: cell-based
particulars: Homo sapiens, 72 h of incubation, daunorubicin-resistant
Scale for pIC50: -log10 of concentration given in mol/L; no unit attached.

Consider the worked cases shown below.
1. COc1ccc2c(c1)C(=O)/C(=C/c1cccnc1Oc1ccccc1)CC2: 4.35
2. O=C1/C(=C/c2cccnc2Oc2ccccc2)CCc2ccccc21: 4.42

Q. Query: pIC50; subject: COc1cccc2c1CC/C(=C\c1cccnc1Oc1ccc(Cl)cc1)C2=O
A. 4.45

Q. And the next one, COc1cccc2c1CC/C(=C\c1cccnc1Oc1ccc(F)cc1)C2=O ?
A. 4.43

====

Tested on: K562
experiment notes: MTS antiproliferative assay K562
Assay type: cell-based, human
particulars: Homo sapiens, K562, 72 h, 72 h of incubation
Description: The cell lines used were acquired from the American Type Culture Collection (ATCC), CCRF-CEM (T lymphoblastic leukemia), K562 ([…]), U2OS (osteosarcoma), HCT116 (colon carcinoma), A549 (lung adenocarcinoma) and HCT116p53−/− (HCT116 cell line mutated in p53) Horizon Discovery Ltd., (Waterbeach, Cambridge, United Kingdom). […]
value type: IC50 (µM)

1. COc1ccc2c(c1)C(=O)/C(=C/c1cccnc1Oc1ccc(Br)cc1)CC2: 43
2. COc1cccc2c1CC/C(=C\c1cccnc1Oc1ccccc1)C2=O: 19.6
3. COc1ccc2c(c1)C(=O)/C(=C/c1cccnc1Oc1ccc(F)cc1)CC2: 27.7
4. COc1cccc2c1CC/C(=C\c1cccnc1Oc1ccc(Cl)cc1)C2=O: 32.7

[a] COc1ccc2c(c1)CC/C(=C\c1cccnc1Oc1ccc(F)cc1)C2=O
[b] O=C1/C(=C/c2cccnc2Oc2ccc(Br)cc2)CCc2ccccc21
[c] COc1ccc2c(c1)CC/C(=C\c1cccnc1Oc1ccccc1)C2=O
Q. Please order the records by their reported IC50, lowest number first. Answer with the labels in sequence, matching the requested order.
A. a, b, c

====

Test system: VERO cells
experiment notes: MTT cytotoxicity on VERO cells
Type: cell-based, African green monkey
particulars: Chlorocebus sabaeus, 72 h
value type: pEC50
Scale for pEC50: -log10 of concentration given in mol/L; no unit attached.

Consider the worked cases shown below.
1. COc1ccc2c(c1)C(=O)/C(=C/c1cccnc1Oc1ccc(Cl)cc1)CC2: 4.00
2. COc1cccc2c1CC/C(=C\c1cccnc1Oc1ccc(Cl)cc1)C2=O: 3.99
3. COc1ccc2c(c1)CC/C(=C\c1cccnc1Oc1ccccc1)C2=O: 4.05

Below: the item to evaluate.
Q. Query: pEC50; subject: O=C(Cn1ccnc1[N+](=O)[O-])NCc1ccccc1 [Bnz, benznidazole, reference compound]
A. 3.92

====

System: epimastigotes of Trypanosoma cruzi strain MHOM/VE/92/YBM
experiment notes: MTT viability of T. cruzi epimastigotes
Type: cell-based
particulars: epimastigotes, 72 h
value type: EC50 (µM)

[I] COc1cccc2c1CC/C(=C\c1cccnc1Oc1ccc(Cl)cc1)C2=O
[II] O=C1/C(=C/c2cccnc2Oc2ccc(Cl)cc2)CCc2ccccc21
Q. For the pair I and II , which entry has the numerically smaller recorded EC50? Selection: enter the item's label.
A. I
(I: 35.5 µM, II: 57.4 µM)

====

System: U2OS
experiment notes: MTS antiproliferative assay U2OS
Assay type: cell-based
particulars: Homo sapiens, 72 h of incubation
Excerpt: The cell lines used were acquired from the American Type Culture Collection (ATCC), CCRF-CEM (T lymphoblastic leukemia), K562 ([…]), U2OS (osteosarcoma), HCT116 (colon carcinoma), A549 (lung adenocarcinoma) and HCT116p53−/− (HCT116 cell line mutated in p53) Horizon Discovery Ltd., (Waterbeach, Cambridge, United Kingdom). […]
value type: IC50 (µM)

[I] O=C1/C(=C/c2cccnc2Oc2ccc(Cl)cc2)CCc2ccccc21
[II] COc1cccc2c1CC/C(=C\c1cccnc1Oc1ccc(Cl)cc1)C2=O
[III] COc1ccc2c(c1)CC/C(=C\c1cccnc1Oc1ccc(Cl)cc1)C2=O
Q. Given 3 molecules, produce a descending ranking by IC50. Answer with the labels in sequence, matching the requested order.
A. II, I, III
(II: 46.8 µM, I: 27.9 µM, III: 8.1 µM)

[a] COc1cccc2c1CC/C(=C\c1cccnc1Oc1ccccc1)C2=O
[b] COc1ccc2c(c1)CC/C(=C\c1cccnc1Oc1ccc(Br)cc1)C2=O
Q. Exercise: compare a and b ; which one has the greater IC50? Selection: enter the item's label.
A. a

[P] O=C1/C(=C/c2cccnc2Oc2ccc(F)cc2)CCc2ccccc21
[Q] O=C1/C(=C/c2cccnc2Oc2ccc(Br)cc2)CCc2ccccc21
Q. Exercise: compare P and Q ; which one has the greater IC50? Selection: enter the item's label.
A. Q

====

Tested on: promastigotes of Leishmania (V.) braziliensis strain MHOM/CO/87/UA301
experiment notes: MTT viability of L. braziliensis promastigotes;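 further: promastigote proliferation in 96-well plates, MTT reduction read at 570 nm, EC50 derived from growth curves, cytotoxicity CC50 likewise by MTT in BMDM and VERO cells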
Type: cell-based
particulars: promastigotes, 72 h
Entries and their EC50
Just the number in µM, nothing appended.

1. COc1ccc2c(c1)C(=O)/C(=C/c1cccnc1Oc1ccc(Br)cc1)CC2: 44.6

Q. Query: EC50; subject: O=C1/C(=C/c2cccnc2Oc2ccccc2)CCc2ccccc21
A. 57.6

====

Test system: CEM-DNR
experiment notes: MTS antiproliferative assay CEM-DNR
Type: cell-based
particulars: Homo sapiens, 72 h of incubation, daunorubicin-resistant
value type: pIC50
Scale for pIC50: -log10 of concentration given in mol/L; no unit attached.

Consider the worked cases shown below.
1) O=C1/C(=C/c2cccnc2Oc2ccc(F)cc2)CCc2ccccc21: 4.45
2) O=C1/C(=C/c2cccnc2Oc2ccc(Br)cc2)CCc2ccccc21: 4.47
3) COc1ccc2c(c1)CC/C(=C\c1cccnc1Oc1ccc(Br)cc1)C2=O: 4.59

Q. Query: pIC50; subject: COc1ccc2c(c1)C(=O)/C(=C/c1cccnc1Oc1ccc(Cl)cc1)CC2
A. 4.62

Q. And the next one, COc1ccc2c(c1)CC/C(=C\c1cccnc1Oc1ccccc1)C2=O ?
A. 4.47

====

Test system: K562-TAX
experiment notes: MTS antiproliferative assay K562-TAX
Type: cell-based, human
particulars: Homo sapiens, K562-Tax, 72 h, 72 h of incubation; paclitaxel-resistant
pIC50: −log10 of the molar value.
value type: pIC50

Consider the worked cases shown below.
1. O=C1/C(=C/c2cccnc2Oc2ccc(F)cc2)CCc2ccccc21: 4.48
2. COc1ccc2c(c1)C(=O)/C(=C/c1cccnc1Oc1ccc(Cl)cc1)CC2: 4.79
3. O=C1/C(=C/c2cccnc2Oc2ccc(Br)cc2)CCc2ccccc21: 4.59
4. COc1ccc2c(c1)CC/C(=C\c1cccnc1Oc1ccc(Br)cc1)C2=O: 4.75
5. COc1ccc2c(c1)CC/C(=C\c1cccnc1Oc1ccccc1)C2=O: 4.52

[a] COc1ccc2c(c1)C(=O)/C(=C/c1cccnc1Oc1ccc(F)cc1)CC2
[b] COc1cccc2c1CC/C(=C\c1cccnc1Oc1ccc(F)cc1)C2=O
Q. For the pair a and b , which entry has the numerically smaller recorded pIC50? Selection: enter the item's label.
A. b
(b: 4.41, a: 4.71)

====

Test system: A549
experiment notes: MTS antiproliferative assay A549
Format: cell-based, human
particulars: 72 h of incubation
value type: IC50 (µM)

1) COc1ccc2c(c1)CC/C(=C\c1cccnc1Oc1ccc(Br)cc1)C2=O: 9.64
2) COc1ccc2c(c1)CC/C(=C\c1cccnc1Oc1ccc(Cl)cc1)C2=O: 9.74

====

Tested on: K562-TAX
experiment notes: MTS antiproliferative assay K562-TAX
Assay type: cell-based, human
particulars: Homo sapiens, K562-Tax, 72 h, 72 h of incubation; paclitaxel-resistant
value type: IC50 (µM)

1. COc1cccc2c1CC/C(=C\c1cccnc1Oc1ccc(Cl)cc1)C2=O: 23.6

[A] O=C1/C(=C/c2cccnc2Oc2ccccc2)CCc2ccccc21
[B] COc1ccc2c(c1)C(=O)/C(=C/c1cccnc1Oc1ccc(Br)cc1)CC2
Q. Exercise: compare A and B ; which one has the greater IC50? Selection: enter the item's label.
A. A

====

Entries and their melting point

Consider the worked cases shown below.
1) O=C1/C(=C/c2cccnc2Oc2ccc(Br)cc2)CCc2ccccc21: 138 to 140 °C
2) COc1ccc2c(c1)CC/C(=C\c1cccnc1Oc1ccc(F)cc1)C2=O: 152 to 154 °C
3) COc1cccc2c1CC/C(=C\c1cccnc1Oc1ccc(F)cc1)C2=O: 154 to 156 °C
4) COc1ccc2c(c1)C(=O)/C(=C/c1cccnc1Oc1ccc(F)cc1)CC2: 150 to 152 °C
5) COc1ccc2c(c1)C(=O)/C(=C/c1cccnc1Oc1ccc(Br)cc1)CC2: 144 to 146 °C

Below: the item to evaluate.
Q. Query: melting point; subject: COc1cccc2c1CC/C(=C\c1cccnc1Oc1ccc(Br)cc1)C2=O
A. 158 to 160 °C
